Test system: 188146-221-R-J1-PDC complex spheroid viability
assay-method-text: Anticancer human tumor 188146-221-R-J1-PDC patient-derived colon adenocarcinoma cell line growth inhibition [POLQ]
setup-conditions: second compound 1 µM; first compound 0.0316 µM; active compounds read low
Reported values of viability, T/C for individual entries

molecule	test-result
CCc1cc2c(N3CCc4c(cc(Cn5ccnc5)cc4-c4cn(C)nc4C(F)(F)F)C3=O)ccnc2c(OC)n1 + Nc1ccc(C#CCN(C(=O)Cc2ncc(C(F)(F)F)cc2C(F)(F)F)c2ccc(F)cc2)nn1	113%
O=c1[nH]cc(F)c(=O)[nH]1 + Nc1ccc(C#CCN(C(=O)Cc2ncc(C(F)(F)F)cc2C(F)(F)F)c2ccc(F)cc2)nn1	100%

Provide value of viability, T/C for this record tested with 188146-221-R-J1-PDC complex spheroid viability: CC1COCCN1c1cc(C2(O)CC3CCC(C2)O3)c2cnn(-c3ccn[nH]3)c2n1 (stereo not given) + Nc1ccc(C#CCN(C(=O)Cc2ncc(C(F)(F)F)cc2C(F)(F)F)c2ccc(F)cc2)nn1
95.8%

Now consider COc1ccc([C@@H](O)c2cc(-c3ncnc4cc(N5CCOCC5)ccc34)c(F)cc2Cl)nn1 + Nc1ccc(C#CCN(C(=O)Cc2ncc(C(F)(F)F)cc2C(F)(F)F)c2ccc(F)cc2)nn1 .
103%

Now consider Cn1ncnc1[C@H]1c2n[nH]c(=O)c3cc(F)cc(c23)N[C@@H]1c1ccc(F)cc1 + Nc1ccc(C#CCN(C(=O)Cc2ncc(C(F)(F)F)cc2C(F)(F)F)c2ccc(F)cc2)nn1 .
95.2%

###

Test system: 188146-221-R-J1-PDC complex spheroid viability
assay-method-text: Anticancer human tumor 188146-221-R-J1-PDC cell line growth inhibition [POLQ]
setup-conditions: second compound 0.0316 µM; first compound 3.16 µM; active compounds read low
Reported values of viability, T/C for individual entries

Some solved entries appear below for comparison.
compound	viability, T/C
C=CC(=O)N1CCN(c2nc(=O)n(-c3c(C)ccnc3C(C)C)c3nc(-c4c(O)cccc4F)c(F)cc23)C(C)C1 (stereo unspecified) + Cc1cccc(N(C)C(=O)C2C(O)CCN2c2nc(C)cc(C(F)(F)F)c2C#N)c1	97%
O=c1[nH]cc(F)c(=O)[nH]1 + COC1C(OC(N)=O)C(O)C(Oc2ccc3c(O)c(NC(=O)c4ccc(O)c(CC=C(C)C)c4)c(=O)oc3c2C)OC1(C)C	39.8%
COc1ccc([C@@H](O)c2cc(-c3ncnc4cc(N5CCOCC5)ccc34)c(F)cc2Cl)nn1 + Cc1cccc(N(C)C(=O)C2C(O)CCN2c2nc(C)cc(C(F)(F)F)c2C#N)c1	72%

Provide value of viability, T/C for this record tested with 188146-221-R-J1-PDC complex spheroid viability: O=c1[nH]cc(F)c(=O)[nH]1 + Nc1ccc(C#CCN(C(=O)Cc2ncc(C(F)(F)F)cc2C(F)(F)F)c2ccc(F)cc2)nn1
46.6%

Now consider CCCS(=O)(=O)Nc1ccc(F)c(C(=O)c2c[nH]c3ncc(-c4ccc(Cl)cc4)cc23)c1F + Cc1cccc(N(C)C(=O)C2C(O)CCN2c2nc(C)cc(C(F)(F)F)c2C#N)c1 .
78.8%

Now consider CCc1cc2c(N3CCc4c(cc(Cn5ccnc5)cc4-c4cn(C)nc4C(F)(F)F)C3=O)cc(C)nc2c(OC)n1 + Cc1cccc(N(C)C(=O)C2C(O)CCN2c2nc(C)cc(C(F)(F)F)c2C#N)c1 .
65.7%

###

Tested on: 188146-221-R-J1-PDC complex spheroid viability
assay-method-text: Anticancer human tumor 188146-221-R-J1-PDC cell line growth inhibition [POLQ]; active = viability on the fitted dose curve at most 10% of control; inactive = the rest;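 further: spheroids exposed to compounds for seven days; 100% = DMSO vehicle control viability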
setup-conditions: second compound 0.0316 µM; first compound 3.16 µM
Tick one outcome: active, inactive

compound	classification
COc1cccc2c1C(=O)c1c(O)c3c(c(O)c1C2=O)CC(O)(C(=O)CO)CC3OC1CC(N)C(O)C(C)O1 (stereo not drawn) + Nc1ccc(C#CCN(C(=O)Cc2ncc(C(F)(F)F)cc2C(F)(F)F)c2ccc(F)cc2)nn1	active

In this assay, the call recorded for CNCc1ccc(-c2[nH]c3cc(F)cc4c3c2CCNC4=O)cc1 + Nc1ccc(C#CCN(C(=O)Cc2ncc(C(F)(F)F)cc2C(F)(F)F)c2ccc(F)cc2)nn1 was what?
inactive

Now consider O=C(Nc1ccc(O)c(NS(=O)(=O)c2ccc(F)cc2)c1)c1ccc(-c2ccccc2)cc1 + Nc1ccc(C#CCN(C(=O)Cc2ncc(C(F)(F)F)cc2C(F)(F)F)c2ccc(F)cc2)nn1 .
inactive

###

Test system: 188146-221-R-J1-PDC complex spheroid viability
assay-method-text: Anticancer human tumor 188146-221-R-J1-PDC cell line growth inhibition [POLQ];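 further: spheroids exposed to compounds for seven days; 100% = DMSO vehicle control viability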
setup-conditions: second compound 10 µM; first compound 0.316 µM; active compounds read low
Reported values of viability, T/C for individual entries
Kindly provide the numeric value in % only, without the unit symbol.

compound	unit-of-measure	test-result
CCc1cc2c(N3CCc4c(cc(Cn5ccnc5)cc4-c4cn(C)nc4C(F)(F)F)C3=O)cc(C)nc2c(OC)n1 + COC1C(OC(N)=O)C(O)C(Oc2ccc3c(O)c(NC(=O)c4ccc(O)c(CC=C(C)C)c4)c(=O)oc3c2C)OC1(C)C	%	101

For the compound CC(C)n1c(=O)n(C)c2cnc3cc(F)c(-c4ccc(OCCCN5CCCCC5)nc4)cc3c21 + Cc1cccc(N(C)C(=O)C2C(O)CCN2c2nc(C)cc(C(F)(F)F)c2C#N)c1 , what viability, T/C is on record?
101

Now consider COc1cc2cc(C(=O)CCC(=O)O)sc2cc1OC + COC1C(OC(N)=O)C(O)C(Oc2ccc3c(O)c(NC(=O)c4ccc(O)c(CC=C(C)C)c4)c(=O)oc3c2C)OC1(C)C .
108

Now consider Nc1ccn(C2OC(CO)C(O)C2(F)F)c(=O)n1 (stereo not given) + Cc1cccc(N(C)C(=O)C2C(O)CCN2c2nc(C)cc(C(F)(F)F)c2C#N)c1 .
20.3

Now consider CCc1c2c(nc3ccc(O)cc13)-c1cc3c(c(=O)n1C2)COC(=O)[C@]3(O)CC + Cc1cccc(N(C)C(=O)C2C(O)CCN2c2nc(C)cc(C(F)(F)F)c2C#N)c1 .
15.2

###

Test system: 188146-221-R-J1-PDC complex spheroid viability
assay-method-text: Anticancer human tumor 188146-221-R-J1-PDC cell line growth inhibition [POLQ];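 further: spheroids exposed to compounds for seven days; 100% = DMSO vehicle control viability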
setup-conditions: second compound 0.1 µM; first compound 0.1 µM; active compounds read low
experimental-readout: viability, T/C (%)
Kindly provide the numeric value in % only, without the unit symbol.

Some solved entries appear below for comparison.
molecule	system-name	test-result
O=c1[nH]cc(F)c(=O)[nH]1 + COC1C(OC(N)=O)C(O)C(Oc2ccc3c(O)c(NC(=O)c4ccc(O)c(CC=C(C)C)c4)c(=O)oc3c2C)OC1(C)C	188146-221-R-J1-PDC complex spheroid viability	102
COc1ccc([C@@H](O)c2cc(-c3ncnc4cc(N5CCOCC5)ccc34)c(F)cc2Cl)nn1 + Cc1cccc(N(C)C(=O)C2C(O)CCN2c2nc(C)cc(C(F)(F)F)c2C#N)c1	188146-221-R-J1-PDC complex spheroid viability	111
CC1COCCN1c1cc(C2(O)CC3CCC(C2)O3)c2cnn(-c3ccn[nH]3)c2n1 (centres undefined) + Cc1cccc(N(C)C(=O)C2C(O)CCN2c2nc(C)cc(C(F)(F)F)c2C#N)c1	188146-221-R-J1-PDC complex spheroid viability	75.7

Now examine the next entry.
For the molecule CC1COCCN1c1cc(-c2ccnn2C)c2ccnc(-c3ccn[nH]3)c2n1 (centres undefined) + Cc1cccc(N(C)C(=O)C2C(O)CCN2c2nc(C)cc(C(F)(F)F)c2C#N)c1 , what viability, T/C is on record?
72.7

###

Tested on: 188146-221-R-J1-PDC complex spheroid viability
assay-method-text: Anticancer human tumor 188146-221-R-J1-PDC cell line growth inhibition [POLQ];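 further: spheroids exposed to compounds for seven days; 100% = DMSO vehicle control viability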
setup-conditions: second compound 0.0316 µM; first compound 0.0316 µM; active compounds read low
Reported values of viability, T/C for individual entries
Kindly provide the numeric value in % only, without the unit symbol.

molecule	unit-of-measure	viability, T/C
CC1COCCN1c1cc(-c2ccnn2C)c2ccnc(-c3ccn[nH]3)c2n1 (stereo not given) + Cc1cccc(N(C)C(=O)C2C(O)CCN2c2nc(C)cc(C(F)(F)F)c2C#N)c1	%	86.4

For the molecule CNCc1ccc(-c2[nH]c3cc(F)cc4c3c2CCNC4=O)cc1 + Nc1ccc(C#CCN(C(=O)Cc2ncc(C(F)(F)F)cc2C(F)(F)F)c2ccc(F)cc2)nn1 , what viability, T/C is on record?
114

Now consider CC[C@@]1(O)C(=O)OCc2c1cc1n(c2=O)Cc2cc3c(CN(C)C)c(O)ccc3nc2-1 + COC1C(OC(N)=O)C(O)C(Oc2ccc3c(O)c(NC(=O)c4ccc(O)c(CC=C(C)C)c4)c(=O)oc3c2C)OC1(C)C .
98.8

Now consider CCCS(=O)(=O)Nc1ccc(F)c(C(=O)c2c[nH]c3ncc(-c4ccc(Cl)cc4)cc23)c1F + Cc1cccc(N(C)C(=O)C2C(O)CCN2c2nc(C)cc(C(F)(F)F)c2C#N)c1 .
117

Now consider O=c1[nH]cc(F)c(=O)[nH]1 + COC1C(OC(N)=O)C(O)C(Oc2ccc3c(O)c(NC(=O)c4ccc(O)c(CC=C(C)C)c4)c(=O)oc3c2C)OC1(C)C .
107
